Reference source: patent US20240208965A1

target: Human MAT2A (Homo sapiens, UniProt P31153); construct: Human MAT2A: Cepter, amino acids 1-395 Clone ID 334, lot 00023-148; purchased Cepter clone ID 334, lot 00023-148; assay: Phosphate Sensor Fluorescence Assay (Biologic Example B); type: biochemical; details: MAT2A inhibition, Biological Example B procedure (Compounds 1.029-1.070); 5.8 nM MAT2A, 500 uM L-methionine, 500 uM ATP
Sequence (P31153 whole entry, the tested form may be a part): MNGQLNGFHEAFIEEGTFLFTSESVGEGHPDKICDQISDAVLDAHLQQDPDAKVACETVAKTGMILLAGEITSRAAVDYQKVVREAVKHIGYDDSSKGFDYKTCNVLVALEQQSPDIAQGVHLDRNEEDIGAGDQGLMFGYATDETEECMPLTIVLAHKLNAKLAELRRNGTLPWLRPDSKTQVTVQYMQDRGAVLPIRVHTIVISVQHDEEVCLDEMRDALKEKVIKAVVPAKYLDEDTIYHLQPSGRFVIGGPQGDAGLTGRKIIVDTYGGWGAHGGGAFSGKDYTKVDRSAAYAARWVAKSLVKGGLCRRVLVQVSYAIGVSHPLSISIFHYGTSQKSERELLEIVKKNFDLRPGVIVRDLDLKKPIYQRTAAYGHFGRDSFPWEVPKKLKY
pIC50: −log10 of the molar value.
OBSERVATION TYPE: pIC50

Batch of 8 compounds: report pIC50 for each.
1. CN(C)c1nc(=O)n(Cc2cccnc2)c2nc(C(F)(F)F)ccc12 [1.053]
2. C[C@@H](c1cnc[nH]1)n1c(=O)nc(N(C)C)c2ccc(Cl)cc21 (single isomer, unassigned) [1.048]
3. C[C@H](c1cnc[nH]1)n1c(=O)nc(N2CCC2)c2ccc(Br)cc21 (single isomer, unassigned) [1.039]
4. C[C@H](c1cnc[nH]1)n1c(=O)nc(N(C)C)c2ccc(Br)cc21 (single isomer, unassigned) [1.043]
5. C[C@@H](c1cnc[nH]1)n1c(=O)nc(N(C)C)c2ccc(Br)cc21 (single isomer, unassigned) [1.044]
6. CNc1nc(=O)n(Cc2cnsc2)c2cc(C(F)(F)F)ccc12 [1.029]
7. CC(c1cnc[nH]1)n1c(=O)nc(N(C)C)c2ccc(C(F)(F)F)nc21 (centres unmarked) [1.046]
8. C[C@@H](c1cc[nH]n1)n1c(=O)nc(N)c2ccc(Cl)cc21 (single isomer, unassigned) [1.070]

1: 5.00 to 6.00; 2: 6.70 to 8.00; 3: 6.30 to 6.70; 4: 6.70 to 8.00; 5: > 8.00; 6: 5.00 to 6.00; 7: 6.70 to 8.00; 8: 6.30 to 6.70

Look at each compound and report its pIC50.
1. CN(C)c1nc(=O)n(Cc2ccncc2)c2nc(C(F)(F)F)ccc12 [1.054]
2. C[C@H](c1cc[nH]n1)n1c(=O)nc(N)c2ccc(Cl)cc21 (single isomer, unassigned) [1.069]
3. CCN(C)c1nc(=O)n([C@@H](C)c2cnc[nH]2)c2cc(C(F)(F)F)ccc12 (single isomer, unassigned) [1.035]

["5.00 to 6.00", "6.70 to 8.00", "6.70 to 8.00"]
